# System: KM12 colon
# METHOD_DESCRIPTION: NCI-60 one-dose screen, 48 h (100 = growth as untreated, 0 = no growth, -100 = all killed)
# TEST_SETTINGS: 10 µM unless noted
About 83,000 compounds went through this panel and 20% of them were active in at least one assay; those are over-represented in the sample as a whole.

{"MOLECULE": "O=C(CI)Nc1ccc(Br)cc1", "SCALE_UNIT": "%", "growth": 88.1}
{"MOLECULE": "Cc1cc(CCl)c(C)cc1CCl", "SCALE_UNIT": "%", "growth": -43.7}
{"MOLECULE": "S=P(N1CCCCCC1)(N1CC1)N1CC1", "SCALE_UNIT": "%", "growth": 105}
{"MOLECULE": "CC1(C)N=C(N)N=C(N)N1c1ccc(OCCCCNC(=O)Nc2cccc(S(=O)(=O)F)c2)c(Cl)c1", "SCALE_UNIT": "%", "growth": 41.7}
{"MOLECULE": "O=C(O)c1nn(Cc2ccc(Cl)cc2)c2ccccc12", "SCALE_UNIT": "%", "growth": 109}
{"MOLECULE": "CN1CCN(C(=O)COc2ccc(/C=C3\\CC4C5CC=C6CC(Cl)CCC6(C)C5CCC4(C)C3=O)cc2)CC1 (centres undefined)", "SCALE_UNIT": "%", "growth": 72.9}
{"MOLECULE": "N#C[Se]CCCNS(=O)(=O)C1CC2C=CC1C2 (centres undefined)", "SCALE_UNIT": "%", "growth": -5.35}
{"MOLECULE": "O=C(N/N=C/c1ccc(N(CCCl)CCCl)cc1)c1cc(=O)[nH]c(=O)[nH]1", "SCALE_UNIT": "%", "growth": 111}
{"MOLECULE": "C=CC(O)CN1CC1CC (centres undefined)", "SCALE_UNIT": "%", "growth": 106}
{"MOLECULE": "CC(=O)O[C@@H]1C2=C(C)C3(CC3)[C@@](C)(O)C(=O)C2=C[C@@]1(C)CO", "SCALE_UNIT": "%", "growth": 0.46}
{"MOLECULE": "O=CC(Br)C(Br)c1ccccc1 (centres undefined)", "SCALE_UNIT": "%", "growth": 96.1}
{"MOLECULE": "CC12CCC3C(CC=C4CC(O)CCC43C)C1C/C(=C\\N1CCOCC1)C2=O (centres undefined)", "SCALE_UNIT": "%", "growth": 108}
{"MOLECULE": "CC(=O)O[C@H]1CCC2C3CCC4=C/C(=N/O)CCC4(C)C3CCC21C (some centres undefined)", "SCALE_UNIT": "%", "growth": 78}
{"MOLECULE": "CCOc1cc(/C=N\\Nc2nnc(C)n2N)c(C)cc1N(CCCl)CCCl", "SCALE_UNIT": "%", "growth": 13.8}
{"MOLECULE": "C[C@]12CCC(=O)CC1CC[C@@H]1C2CC[C@@]2(C)C1CC[C@@H]2OC(=O)CC[Se][Se]CCC(=O)O[C@H]1CCC2[C@@H]3CCC4CC(=O)CC[C@]4(C)C3CC[C@@]21C (some centres undefined)", "SCALE_UNIT": "%", "growth": 103}
{"MOLECULE": "CNC(C)Cc1ccccc1 (centres undefined) (tested in a mixture with another compound)", "SCALE_UNIT": "%", "growth": 99.8}
{"MOLECULE": "NC(=O)SCC(=O)Nc1ccc([As](=O)(O)O)cc1", "SCALE_UNIT": "%", "growth": 97.6}
{"MOLECULE": "c1ccc([As]=[As]c2ccccc2)cc1 (centres undefined)", "SCALE_UNIT": "%", "growth": 9.67}
{"MOLECULE": "CC[C@@]1(C2O[C@@H](C3O[C@@](O)(CC)[C@H](C)C[C@@H]3C)C[C@@H]2C)CC[C@H]([C@]2(C)CCC3(C[C@H](O)[C@@H](C)[C@@H]([C@H](C)[C@@H](OC)[C@H](C)C(=O)O)O3)O2)O1 (some centres undefined)", "SCALE_UNIT": "%", "growth": 20.6}
{"MOLECULE": "O=[As]c1ccc(C(=O)c2ccc(Oc3ccccc3)cc2)cc1 (centres undefined)", "SCALE_UNIT": "%", "growth": -87.2}
{"MOLECULE": "CC1(C)N=C(N)N=C(N)N1c1cccc(C(=O)Nc2cccc(S(=O)(=O)F)c2)c1", "SCALE_UNIT": "%", "growth": 102}
{"MOLECULE": "CCOc1cc(C=C(C#N)C#N)cc(Br)c1O", "SCALE_UNIT": "%", "growth": 103}
{"MOLECULE": "CC1CC=CCC12C(=O)NC(=S)NC2=O (centres undefined)", "SCALE_UNIT": "%", "growth": 116}
{"MOLECULE": "O=S(=O)(Cl)c1ccccc1 (tested in a mixture with another compound)", "SCALE_UNIT": "%", "growth": 108}
{"MOLECULE": "CNc1ccc(C(=O)CC(O)CCC(C)C2OC(=O)CC(O)CC(=O)CC(O)CC(O)CC(O)CC(O)CC3(O)CC(O)C(C(=O)OC)C(CC(O[C@@H]4O[C@H](C)[C@@H](O)[C@H](N)[C@@H]4O)/C=C/C=C/C=C/C=C/C=C/C=C/C=C/C2C)O3)cc1 (some centres undefined)", "SCALE_UNIT": "%", "growth": 7.61}
{"MOLECULE": "O=C(O)CC(Br)C(=O)CBr (centres undefined)", "SCALE_UNIT": "%", "growth": 111}
{"MOLECULE": "CC(C)Nc1ccc(Nc2ccccc2)cc1", "SCALE_UNIT": "%", "growth": 27.6}
{"MOLECULE": "C/C(=N/OC(=O)N(C)C)c1ccc(Cl)cc1Cl", "SCALE_UNIT": "%", "growth": 108}
{"MOLECULE": "Cc1cc(NC(=O)NCCOc2ccc(N3C(N)=NC(N)=NC3(C)C)cc2Cl)ccc1S(=O)(=O)F", "SCALE_UNIT": "%", "growth": 20.1}

Cited source for all entries: PubChem BioAssay (NCI)
